B1: library; a variant is named by its letters at N, in order (parent)
chain: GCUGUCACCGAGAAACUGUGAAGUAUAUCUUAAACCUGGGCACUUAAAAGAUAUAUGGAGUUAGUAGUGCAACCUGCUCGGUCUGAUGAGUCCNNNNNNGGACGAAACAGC

variants of: B1; test: normalized RNA/DNA level without ligand (relative to sTRSVctl = 100) (log10 (% of sTRSVctl)); HEK293T; ligand: cyclic di-GMP (c-di-GMP-II aptamer); higher = less ribozyme self-cleavage, higher mRNA level; details: reporter: mCherry (pCS4076), ligand present: no
Test readout: normalized RNA/DNA level without ligand (log10)

Variant notation: UCUUGA
Value: 1.7

Variant notation: GCAGUA
Value: 1.59

Variant notation: CUUGGG
Value: 1.74

Variant notation: UUCGAG
Value: 1.63

Variant notation: UAAUAA
Value: 1.66

Variant notation: ACGGUU
Value: 1.22

Variant notation: CAGAAA
Value: 1.15

Variant notation: GAGGAC
Value: 1.67

Variant notation: UGAUAG
Value: 1.7

Variant notation: AACUAU
Value: 1.66

Variant notation: AAUCCU
Value: 1.73

Variant notation: UAGCAU
Value: 1.65

Variant notation: GAUGUU
Value: 1.62

Variant notation: GUUGGU
Value: 1.61

Variant notation: GCGGCC
Value: 1.73

Variant notation: AGUGCU
Value: 1.67

Variant notation: GUGUGU
Value: 1.59

Variant notation: CAGCCG
Value: 1.85

Variant notation: CAGACU
Value: 1.58

Variant notation: CUCUAA
Value: 1.4

Variant notation: UGUCAG
Value: 1.67

Variant notation: UCAGGC
Value: 1.71

Variant notation: GAAGUC
Value: 1.59

Variant notation: AGCCGG
Value: 1.77

Variant notation: AAACAA
Value: 1.44

Variant notation: AGGAUU
Value: 1.49

Variant notation: CAUUAU
Value: 1.54

Variant notation: CAUUGA
Value: 1.6

Variant notation: UUCUUG
Value: 1.73

Variant notation: CGUACG
Value: 1.78

Variant notation: GAAAUA
Value: 1.47

Variant notation: AUUGGG
Value: 1.54

Variant notation: GACCGU
Value: 1.74

Variant notation: CGCCCU
Value: 1.78

Variant notation: AUGGCC
Value: 1.78

Variant notation: ACAAUA
Value: 1.33

Variant notation: UCAGUC
Value: 1.7

Variant notation: GAGCUC
Value: 1.83

Variant notation: GAACUC
Value: 1.72

Variant notation: CGAUGG
Value: 1.67

Variant notation: GAAGCG
Value: 1.84

Variant notation: ACUUCU
Value: 1.71

Variant notation: UAGAGU
Value: 1.56

Variant notation: ACUACC
Value: 1.69

Variant notation: AAGUCU
Value: 1.68

Variant notation: UCUAUU
Value: 1.63
